target: alanyl aminopeptidases (APN) (Homo sapiens); test: Inhibition of alanyl aminopeptidase enzymatic activity, fluorogenic substrate (Ala)2-rhodamine 110; type: biochemical; settings: Table 12; read-out: IC50APN
In this section, each of the compounds is paired with its reported IC50.
The figure you give is taken to be in µM; do not add the unit.

O=C(N/C(=C\c1ccco1)C(=O)N1CCCC(CO)C1)c1ccccc1 (centres unmarked) [A12.035] : 19

Then this compound:
Which IC50 is reported for this compound? O=C(N/C(=C\c1ccco1)C(=O)N1CCC(O)CC1)c1ccccc1 [A12.038]
21.1

###

biological target: UniProtKB P15144; assay: Inhibition of alanyl aminopeptidase enzymatic activity, fluorogenic substrate (Ala)2-rhodamine 110; type: biochemical; settings: Table 13; read-out: IC50APN
Measured IC50, listed per entry for reference.
Number in µM, nothing else.

Solved cases (4 shown):
CCOC(=O)c1cc(-c2ccc(/C=C3\C(=O)N(CCCO)C(=O)C(C#N)=C3C)o2)ccc1Cl : 41
CCCOC(=O)c1cc(-c2ccc(/C=C3\C(=O)NC(=O)C(C#N)=C3C)o2)ccc1Cl : 36.8
CC1=C(C#N)C(=O)N(CCCO)C(=O)/C1=C\c1ccc(-c2ccc(Br)cc2)o1 : 16
CCOC(=O)c1ccc(-c2ccc(/C=C3\C(=O)N(CCO)C(=O)C(C#N)=C3C)o2)cc1 : 2.7

# lookup: IC50 of COC(=O)c1cc(-c2ccc(/C=C3\C(=O)N(CCCO)C(=O)C(C#N)=C3C)o2)ccc1Cl
15.2

Look at this compound and give its reported IC50. CCCOc1[nH]c(/N=C/c2ccccc2)c(C#N)c1C#N
20

Bench note: what IC50 did CC1=C(C#N)C(=O)N(CC(C)O)C(=O)/C1=C/c1ccc(-c2cccc(Cl)c2C)o1 (centres unmarked) show?
28.6

What IC50 value was documented for this compound, CC1=C(C#N)C(=O)N(CCO)C(=O)/C1=C\c1ccc(-c2ccc(C)c(Cl)c2)o1 ?
125

###

Target: alanyl aminopeptidases (APN) (Homo sapiens, UniProt P15144)
Sequence (P15144 whole entry, species assumed): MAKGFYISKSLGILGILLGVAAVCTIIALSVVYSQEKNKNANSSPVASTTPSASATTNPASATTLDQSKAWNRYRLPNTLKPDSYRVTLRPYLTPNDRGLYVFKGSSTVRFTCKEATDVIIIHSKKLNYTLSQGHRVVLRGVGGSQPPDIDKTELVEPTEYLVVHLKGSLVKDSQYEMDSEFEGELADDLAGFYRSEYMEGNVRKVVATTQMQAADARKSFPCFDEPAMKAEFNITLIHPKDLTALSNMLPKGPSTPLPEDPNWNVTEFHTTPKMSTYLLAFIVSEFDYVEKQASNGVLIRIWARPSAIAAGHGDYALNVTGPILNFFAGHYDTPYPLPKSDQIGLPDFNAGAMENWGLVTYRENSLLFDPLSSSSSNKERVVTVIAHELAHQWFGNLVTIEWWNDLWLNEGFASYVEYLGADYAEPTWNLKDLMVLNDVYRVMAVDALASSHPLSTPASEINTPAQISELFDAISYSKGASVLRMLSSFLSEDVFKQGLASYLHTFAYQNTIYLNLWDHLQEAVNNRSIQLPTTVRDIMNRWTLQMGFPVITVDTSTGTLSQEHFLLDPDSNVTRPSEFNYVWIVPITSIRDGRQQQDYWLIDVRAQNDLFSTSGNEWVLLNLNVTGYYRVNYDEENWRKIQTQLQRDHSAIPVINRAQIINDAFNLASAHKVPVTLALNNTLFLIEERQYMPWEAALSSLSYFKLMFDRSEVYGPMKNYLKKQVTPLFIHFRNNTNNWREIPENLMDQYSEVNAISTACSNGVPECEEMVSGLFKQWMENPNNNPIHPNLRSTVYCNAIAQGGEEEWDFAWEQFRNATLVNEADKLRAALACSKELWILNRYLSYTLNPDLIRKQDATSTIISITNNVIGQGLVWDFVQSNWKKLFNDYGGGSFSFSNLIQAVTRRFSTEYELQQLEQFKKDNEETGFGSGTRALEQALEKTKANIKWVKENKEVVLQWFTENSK
Assay: Inhibition of alanyl aminopeptidase enzymatic activity, fluorogenic substrate (Ala)2-rhodamine 110
Format: biochemical
Conditions: Table 13; read-out: IC50APN
Protocol: The inhibition characteristics measured are referred to as IC-50 values or ID50 values (the latter marked with “*”) for said enzyme. The enzymatic activity was determined by means of the fluorogenic substrate/product (Ala)2-rhodamine 110.
recorded.metric: pIC50
Expect pIC50 as a plain number equal to -log10 of the molar concentration.

Some solved entries appear below for comparison.
CC1=C(C#N)C(=O)N(CC(C)O)C(=O)/C1=C/c1ccc(-c2ccc(Br)cc2)o1 (stereo not shown) : 4.33
CC1=C(C#N)C(O)=NC(=O)/C1=C/c1ccc(-c2ccc(Cl)cc2Cl)o1 : 4.49
Cc1ccccc1NC(=O)C1C(c2cccs2)C(C#N)=C(SCC(=O)Nc2ccc(Br)cc2)NC1(C)O (stereo not shown) : 4.47
CC1CCc2c(sc(NC(=O)C(C(F)(F)F)C(F)(F)F)c2C#N)C1 (stereo not shown) : 4.29
CC1=C(C#N)C(O)=NC(=O)/C1=C/c1ccc(-c2ccc(Cl)c(C(=O)OC(C)C)c2)o1 : 4.67
C=CCOC(=O)c1cc(-c2ccc(/C=C3/C(=O)N(CCCO)C(=O)C(C#N)=C3C)o2)ccc1Cl : 4.74
Cc1ccc(/C=N/NC(=O)c2cccc(Cl)c2)o1 : 4.98
CCCOC(=O)c1cc(-c2ccc(/C=C3\C(=O)N(CCO)C(=O)C(C#N)=C3C)o2)ccc1Cl : 4.27
CCCN1C(=O)C(C#N)=C(C)/C(=C\c2ccc(-c3cccc(Cl)c3C)o2)C1=O : 4.68
CC1=C(C#N)C(=O)N(CCO)C(=O)/C1=C\c1ccc(-c2cc(Cl)ccc2Cl)o1 : 5.92

Dear colleague, I am looking for the recorded pIC50 of the following molecule: CC(=O)c1cccc(-c2ccc(/C=C3/C(=O)N(CCCO)C(=O)C(C#N)=C3C)o2)c1
4.74

Requested read-out: pIC50. Entry: CCCOC(=O)c1cc(-c2ccc(/C=C3/C(=O)N(CC(C)O)C(=O)C(C#N)=C3C)o2)ccc1Cl (stereo not shown)
4.49

Returns the measured pIC50 for the input molecule. Input: COC(=O)c1cccc(-c2ccc(/C=C3\C(=O)N(CCO)C(=O)C(C#N)=C3C)o2)c1
5.20

Quick one: pIC50 of N#C/C(=C\c1ccc(N2Cc3ccccc3C2)cc1)C(=O)NCC1CCCO1 (stereo not shown) ?
4.55

Param item = COC(=O)c1ccc(-c2ccc(/C=C3\C(=O)N(CCCO)C(=O)C(C#N)=C3C)o2)cc1 ; retrieve measured pIC50.
5.30

Quick check: pIC50 of C=CCN1C(=O)C(C#N)=C(C)/C(=C\c2ccc(-c3cc(C)c(C)cc3[N+](=O)[O-])o2)C1=O ?
4.53
